Value source: ChEMBL document CHEMBL1125676

# assayedSystem: GABA-A receptor; anion channel
# protocolNotes: Binding affinity to picrotoxin site of Gamma-aminobutyric acid receptor using [35S]TBPS as radioligand
# Assay type: protein-complex assay, Rattus norvegicus
Please note: IC50 exactly at 1 mM is N. Only values below 1 mM get Y.

Reference set (5 entries):
CCC1(C)CC(=O)OC1(C)C (stereo not drawn) :: N
CCC1(CC)CCOC1=O :: Y
CC1(C)CCOC1=O :: N
CCC1CCOC1=O (stereo not drawn) :: N
CC(C)C1CCSC1=O (stereo not drawn) :: Y

Strictly below 1 mM in IC50? CC(C)(C)C1COC(=O)C1 (stereo not drawn)
N

Same question for CCC1(C)CCOC1=O (stereo not drawn) please.
N
